Assay: qHTS cell viability (CellTiter-Glo, 72 h; primary screen), control cell line
Type: cell-based, human
Settings: human, HACAT cells; HACAT, Log (M) -9.10767; read-out: Percent viability
Value Kind: viability at 72 h, 0.78 nM (%)
Field: numeric (%). Do not append units.

input: Reported viability at 72 h, 0.78 nM for COCCn1c2c([n+](Cc3cnccn3)c1C)C(=O)c1ccccc1C2=O [sepantronium bromide, reference compound] : what is it?
output: 104

----------
System: UISO cells (VN-MCC)
Assay: qHTS cell viability (CellTiter-Glo, 72 h; primary and follow-up small molecule screen)
Assay type: cell-based, human
Conditions: UISO, 72h, Log (M) -8.19919
Overview of recorded Percent viability for various compounds
Quick reminder: number only, in %, skip the unit.

In [3]: df
Out[3]:
                                   compound  value_measured
0  Cc1cc(Nc2cc(N3CCN(C)CC3)nc(Sc3ccc(NC(=O)C4CC4)cc3)n2)[nH]n1 [Tozasertib, reference compound]            94.4

input: API: value(readout= Percent viability, system= UISO cells (VN-MCC), query= CCS(=O)(=O)c1cccc(-c2cc(C(=O)NC3CCN(C)CC3)c(C)c3[nH]c4ncc(C)cc4c23)c1 [TAK-901, reference compound] )
output: 77.5

input: Could you share what Percent viability was measured for O=C(Nc1cccc(Cl)c1)Nc1ncc(CCNc2ncnc3ccsc23)s1 [SNS-314, reference compound] , tested on UISO cells (VN-MCC)?
output: 89.1

input: Reported Percent viability for UISO cells (VN-MCC), given CCn1cc(-c2ccnc3[nH]c(-c4cccc(CN(C)C)c4)cc23)c(-c2ccc(NC(=O)N(C)C)cc2)n1 [GSK-1070916A, reference compound] ?
output: 90.7

----------
Area under the dose-response curve (AUC) MCC26 Replicate 1 values, listed per item
System: MCC26 cells (VN-MCC)
Test: qHTS cell viability (CellTiter-Glo, 72 h; primary and follow-up small molecule screen)
Format: cell-based, human
# print the numeric value only

Examples with answers:
Compound	Value Measured
CC(C)(C)CC(C)(C)c1ccc(OCCOCC[N+](C)(C)Cc2ccccc2)cc1 [Benzethonium chloride]	408.1
C[C@H]1CCC/C=C/[C@@H]2C[C@H](OC(=O)CN(C)C)C[C@H]2[C@H](O)/C=C/C(=O)O1 [Breflate]	324.6

input: Could you tell me which Area under the dose-response curve (AUC) MCC26 Replicate 1 is on file for CCC(=O)NC[C@H](Cc1ccc(OCCc2nc(-c3ccccc3)oc2C)cc1)N/C(C)=C\C(=O)c1ccc(C(F)(F)F)cc1 [GW-6471] ?
output: 466.5

input: What value of Area under the dose-response curve (AUC) MCC26 Replicate 1 has been recorded for this entry: CN(C)c1ccc(C(=C2C=CC(=[N+](C)C)C=C2)c2ccccc2)cc1.CN(C)c1ccc(C(=C2C=CC(=[N+](C)C)C=C2)c2ccccc2)cc1.O=C(O)C(=O)O.O=C([O-])C(=O)O.O=C([O-])C(=O)O [Malachite green oxalate]
output: 302.0

----------
System: VN-MCC cell lines (MCC13, MCC26, UISO)
Test: qHTS cell viability, VN-MCC cell lines as a group (mean AUC, VN.MCC.avg)
Format: cell-based, human
Conditions: NPC library; mean AUC of VN-MCC cell lines
Counter-ions that a name gives are not always drawn.
Value Kind: VN-MCC_Avg_AUC

// below: answered compounds
                                   compound      value_kind  value_measured
0  CCOc1ccc2nc(S(N)(=O)=O)sc2c1 [Ethoxzolamide]  VN-MCC_Avg_AUC         445.807
1  Oc1ccc(C2CNCCc3c2cc(O)c(O)c3Cl)cc1 (stereo not drawn)  VN-MCC_Avg_AUC         440.711
2  O=C(CCCCCCCCC#CI)Oc1ccccc1 [Phenyl 11-iodo-10-undecynoate]  VN-MCC_Avg_AUC         450.746
3  O=C(CCCN1CCC(O)(c2ccc(Br)cc2)CC1)c1ccc(F)cc1  VN-MCC_Avg_AUC         488.845
4  CCOC(=O)[C@H](CCc1ccccc1)N[C@@H](C)C(=O)N1CCC[C@H]1C(=O)O  VN-MCC_Avg_AUC         510.759
5              O=C(N/N=C/c1ccccc1O)c1ccncc1  VN-MCC_Avg_AUC         408.107
6  CC1=C(C)C(=O)C(CCCCC#CCCCC#CCO)=C(C)C1=O  VN-MCC_Avg_AUC          435.96
7  CCCCC(CC)CNC(=N)NC(=N)NCCCCCCNC(=N)NC(=N)NCC(CC)CCCC (stereo not drawn) [Alexidine dihydrochloride]  VN-MCC_Avg_AUC         374.766
8  O=C1OC(CCN2CCCCC2)OC1(c1ccccc1)c1ccccc1 (stereo not drawn) [Pipoxolan hydrochloride]  VN-MCC_Avg_AUC         450.651
9  Cc1ccsc1C(=CCCN1CCC[C@@H](C(=O)O)C1)c1sccc1C [Tiagabine hydrochloride]  VN-MCC_Avg_AUC         526.106

Continue with the compound presented below.
input: Entry CCOC(=O)[C@@](C)(N)Cc1ccc(O)c(O)c1 [Methyldopate hydrochloride] : reported VN-MCC_Avg_AUC = ?
output: 434.044

Numbers sourced from paper PMC11822212.
